- Assay info: Biodistribution in PC-3 tumor-bearing CB17-SCID mice
- Assay type: in vivo
- Reported conditions: mouse, intestine, intravenous, 100 pmol, ^68Ga-labeled; 1 h p.i.; 100 pmol; n = 4; read-out: Uptake in Intestine
Starred links: 1 amine or outer side, 2 acyl side, 3 side chain; linkers in the order of their positions; H or OH if unused. Non-standard residues stand in square brackets, D forms with d. Residues, ends and D or L forms follow the SMILES beside them. *: point of attachment. DOTA = O=C(O)CN1CCN(CC(=O)O)CCN(CC(=O)*)CCN(CC(=O)O)CC1; Sta = CC(C)C[C@H](N)[C@@H](O)CC(=O)O; Bta = N[C@@H](Cc1csc2ccccc12)C(=O)O; X1 = O=C(CN1CCC(N[*:1])CC1)[*:2]; hSer = N[C@@H](CCO)C(=O)O
Please provide measured tissue uptake at 1 h for the entries that follow.
Write down the numeric answer in %ID/g and omit the unit.

*Q* # query: tissue uptake at 1 h of entry CC(C)C[C@H](NC(=O)C[C@H](O)[C@H](CC(C)C)NC(=O)[C@H](Cc1c[nH]cn1)NC(=O)CNC(=O)[C@@H](NC(=O)[C@H](C)NC(=O)[C@H](Cc1csc2ccccc12)NC(=O)[C@H](CCC(N)=O)NC(=O)[C@@H](Cc1ccccc1)NC(=O)CN1CCC(NC(=O)CN2CCN(CC(=O)O)CCN(CC(=O)O)CCN(CC(=O)O)CC2)CC1)C(C)C)C(N)=O [[^68Ga]Ga-[Bta^8]RM2, metal not drawn] ({DOTA}-[X1][dF]Q[Bta]AVGH[Sta]L-NH2)
*A* 0.66

*Q* Param item = CC(C)C[C@H](NC(=O)C[C@H](O)[C@H](CC(C)C)NC(=O)[C@H](Cc1c[nH]cn1)NC(=O)CNC(=O)[C@@H](NC(=O)[C@H](C)NC(=O)[C@H](Cc1c[nH]c2ccccc12)NC(=O)[C@H](CCO)NC(=O)[C@@H](Cc1ccccc1)NC(=O)CN1CCC(NC(=O)CN2CCN(CC(=O)O)CCN(CC(=O)O)CCN(CC(=O)O)CC2)CC1)C(C)C)C(N)=O [[^68Ga]Ga-[Hse^7]RM2, metal not drawn] ({DOTA}-[X1][dF][hSer]WAVGH[Sta]L-NH2) ; retrieve measured tissue uptake at 1 h.
*A* 1.52

###

- Assay info: Biodistribution in PC-3 tumor-bearing CB17-SCID mice
- Format: in vivo
- Reported conditions: mouse, kidney, intravenous, 100 pmol, ^68Ga-labeled; 1 h p.i.; 100 pmol; n = 4; read-out: Uptake in Kidney
Starred links: 1 amine or outer side, 2 acyl side, 3 side chain; linkers in the order of their positions; H or OH if unused. Non-standard residues stand in square brackets, D forms with d. Residues, ends and D or L forms follow the SMILES beside them. *: point of attachment. DOTA = O=C(O)CN1CCN(CC(=O)O)CCN(CC(=O)*)CCN(CC(=O)O)CC1; Sta = CC(C)C[C@H](N)[C@@H](O)CC(=O)O; Bta = N[C@@H](Cc1csc2ccccc12)C(=O)O; X1 = O=C(CN1CCC(N[*:1])CC1)[*:2]; hSer = N[C@@H](CCO)C(=O)O
Quantity name: tissue uptake at 1 h (%ID/g)
Output spec: scalar in %ID/g, unitless text.

*Q* Bench note: what tissue uptake at 1 h did CC(C)C[C@H](NC(=O)C[C@H](O)[C@H](CC(C)C)NC(=O)[C@H](Cc1c[nH]cn1)NC(=O)CNC(=O)[C@@H](NC(=O)[C@H](C)NC(=O)[C@H](Cc1csc2ccccc12)NC(=O)[C@H](CCC(N)=O)NC(=O)[C@@H](Cc1ccccc1)NC(=O)CN1CCC(NC(=O)CN2CCN(CC(=O)O)CCN(CC(=O)O)CCN(CC(=O)O)CC2)CC1)C(C)C)C(N)=O [[^68Ga]Ga-[Bta^8]RM2, metal not drawn] ({DOTA}-[X1][dF]Q[Bta]AVGH[Sta]L-NH2) show?
*A* 2.33

*Q* Quick check: tissue uptake at 1 h of CC(C)C[C@H](NC(=O)C[C@H](O)[C@H](CC(C)C)NC(=O)[C@H](Cc1c[nH]cn1)NC(=O)CNC(=O)[C@@H](NC(=O)[C@H](C)NC(=O)[C@H](Cc1c[nH]c2ccccc12)NC(=O)[C@H](CCO)NC(=O)[C@@H](Cc1ccccc1)NC(=O)CN1CCC(NC(=O)CN2CCN(CC(=O)O)CCN(CC(=O)O)CCN(CC(=O)O)CC2)CC1)C(C)C)C(N)=O [[^68Ga]Ga-[Hse^7]RM2, metal not drawn] ({DOTA}-[X1][dF][hSer]WAVGH[Sta]L-NH2) ?
*A* 3.51

###

- Assay info: Biodistribution in PC-3 tumor-bearing CB17-SCID mice
- Type: in vivo
- Reported conditions: mouse, bone, intravenous, 100 pmol, ^177Lu-labeled; 1 h p.i.; 100 pmol; n = 4; read-out: Uptake in Bone
Starred links: 1 amine or outer side, 2 acyl side, 3 side chain; linkers in the order of their positions; H or OH if unused. Non-standard residues stand in square brackets, D forms with d. Residues, ends and D or L forms follow the SMILES beside them. *: point of attachment. DOTA = O=C(O)CN1CCN(CC(=O)O)CCN(CC(=O)*)CCN(CC(=O)O)CC1; Sta = CC(C)C[C@H](N)[C@@H](O)CC(=O)O; Bta = N[C@@H](Cc1csc2ccccc12)C(=O)O; X1 = O=C(CN1CCC(N[*:1])CC1)[*:2]; hSer = N[C@@H](CCO)C(=O)O
For each record, write down the corresponding tissue uptake at 1 h.
API: value field is a number in %ID/g; no unit string.

*Q* Would you mind telling me what tissue uptake at 1 h value was observed for CC(C)C[C@H](NC(=O)C[C@H](O)[C@H](CC(C)C)NC(=O)[C@H](Cc1c[nH]cn1)NC(=O)CNC(=O)[C@@H](NC(=O)[C@H](C)NC(=O)[C@H](Cc1c[nH]c2ccccc12)NC(=O)[C@H](CCO)NC(=O)[C@@H](Cc1ccccc1)NC(=O)CN1CCC(NC(=O)CN2CCN(CC(=O)O)CCN(CC(=O)O)CCN(CC(=O)O)CC2)CC1)C(C)C)C(N)=O [[^177Lu]Lu-[Hse^7]RM2, metal not drawn] ({DOTA}-[X1][dF][hSer]WAVGH[Sta]L-NH2) ?
*A* 0.2

*Q* Quick one: tissue uptake at 1 h of CC(C)C[C@H](NC(=O)C[C@H](O)[C@H](CC(C)C)NC(=O)[C@H](Cc1c[nH]cn1)NC(=O)CNC(=O)[C@@H](NC(=O)[C@H](C)NC(=O)[C@H](Cc1csc2ccccc12)NC(=O)[C@H](CCC(N)=O)NC(=O)[C@@H](Cc1ccccc1)NC(=O)CN1CCC(NC(=O)CN2CCN(CC(=O)O)CCN(CC(=O)O)CCN(CC(=O)O)CC2)CC1)C(C)C)C(N)=O [[^177Lu]Lu-[Bta^8]RM2, metal not drawn] ({DOTA}-[X1][dF]Q[Bta]AVGH[Sta]L-NH2) ?
*A* 0.9

###

For each of the compounds below, state its tissue to tissue ratio at 1 h.
- Assay info: Biodistribution in PC-3 tumor-bearing CB17-SCID mice
- Assay type: in vivo
- Reported conditions: CB17-SCID, mouse, tumor and blood, iv, 100 pmol, total radioactivity; ^68Ga-labeled; 1 h p.i.; n = 4; read-out: Tumor-to-Blood ratio
Starred links: 1 amine or outer side, 2 acyl side, 3 side chain; linkers in the order of their positions; H or OH if unused. Non-standard residues stand in square brackets, D forms with d. Residues, ends and D or L forms follow the SMILES beside them. *: point of attachment. DOTA = O=C(O)CN1CCN(CC(=O)O)CCN(CC(=O)*)CCN(CC(=O)O)CC1; Sta = CC(C)C[C@H](N)[C@@H](O)CC(=O)O; Bta = N[C@@H](Cc1csc2ccccc12)C(=O)O; X1 = O=C(CN1CCC(N[*:1])CC1)[*:2]; hSer = N[C@@H](CCO)C(=O)O

*Q* So what does the record say about tissue to tissue ratio at 1 h for CC(C)C[C@H](NC(=O)C[C@H](O)[C@H](CC(C)C)NC(=O)[C@H](Cc1c[nH]cn1)NC(=O)CNC(=O)[C@@H](NC(=O)[C@H](C)NC(=O)[C@H](Cc1c[nH]c2ccccc12)NC(=O)[C@H](CCO)NC(=O)[C@@H](Cc1ccccc1)NC(=O)CN1CCC(NC(=O)CN2CCN(CC(=O)O)CCN(CC(=O)O)CCN(CC(=O)O)CC2)CC1)C(C)C)C(N)=O [[^68Ga]Ga-[Hse^7]RM2, metal not drawn] ({DOTA}-[X1][dF][hSer]WAVGH[Sta]L-NH2) ?
*A* 1.9

*Q* Given the entry CC(C)C[C@H](NC(=O)C[C@H](O)[C@H](CC(C)C)NC(=O)[C@H](Cc1c[nH]cn1)NC(=O)CNC(=O)[C@@H](NC(=O)[C@H](C)NC(=O)[C@H](Cc1csc2ccccc12)NC(=O)[C@H](CCC(N)=O)NC(=O)[C@@H](Cc1ccccc1)NC(=O)CN1CCC(NC(=O)CN2CCN(CC(=O)O)CCN(CC(=O)O)CCN(CC(=O)O)CC2)CC1)C(C)C)C(N)=O [[^68Ga]Ga-[Bta^8]RM2, metal not drawn] ({DOTA}-[X1][dF]Q[Bta]AVGH[Sta]L-NH2) , report its measured tissue to tissue ratio at 1 h.
*A* 7.6

The reported measurements were obtained from paper PMC12401824.
